Molecular target: α7-subtype of nicotinic receptors (Rattus norvegicus, UniProt Q05941)
Construct: Cerebral cortices from male Wistar rats (150-250 g) are homogenised; from tissue; host or cells: rat cerebral cortex membrane homogenate
Sequence (Q05941 23-502): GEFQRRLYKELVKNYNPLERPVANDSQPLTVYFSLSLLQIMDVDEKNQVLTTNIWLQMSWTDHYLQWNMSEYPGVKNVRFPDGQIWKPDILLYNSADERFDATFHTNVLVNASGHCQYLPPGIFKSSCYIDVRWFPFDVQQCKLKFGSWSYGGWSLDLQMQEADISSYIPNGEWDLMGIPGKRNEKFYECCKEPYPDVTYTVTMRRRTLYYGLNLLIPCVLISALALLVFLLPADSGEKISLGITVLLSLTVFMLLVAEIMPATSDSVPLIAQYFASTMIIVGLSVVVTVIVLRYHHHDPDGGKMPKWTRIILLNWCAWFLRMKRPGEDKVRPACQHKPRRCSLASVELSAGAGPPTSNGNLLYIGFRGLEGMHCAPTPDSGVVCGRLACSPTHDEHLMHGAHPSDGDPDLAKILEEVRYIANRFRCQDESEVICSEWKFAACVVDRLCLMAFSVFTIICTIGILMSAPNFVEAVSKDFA
Experiment: In vitro inhibition of 3H-α-bungarotoxine binding in rat brain
Conditions: rat cerebral cortex homogenate, 2 nM 3H-α-bungarotoxine, 2 hours at 37° C; read-out: Inhibition of 3H-α-Bungarotoxine Binding IC50
observed-property: pIC50
pIC50 is defined as minus the log10 of a concentration measured in mol/L.

Lookup: // lookup pIC50 for C=CCN1C2C=C(C3=Cc4ccccc4S3(=O)=O)CC1CC2 (racemic)
Found: 6.07
